Consider the following compounds; for each one, report its melting point.

Lab book: melting point of O=c1c2cc(F)c(F)cc2n(-c2ccccc2F)c(=O)n1OCc1ccccc1 noted as 204 to 206 °C

Quick note, melting point for Cc1ccc(S(=O)(=O)NCCNC2(c3ccc(Cl)cc3)OC(=O)c3ccccc32)cc1 (centres undefined) landed at 177 to 179 °C

compound O=c1cnc(-c2cc(Br)cc(-c3ccsc3)c2)nn1CC(F)(F)F , melting point observed: 180 to 182 °C

Notebook: O=C(c1ccc(O)cc1)c1cccc2[nH]ccc12 , melting point read as 177 °C

Just so you know, measured melting point for CC(C)C(C)(C#N)N1C(=O)c2cc3ccccc3nc2C1=O (centres undefined) came out at 195 to 196 °C

Please fill in: melting point reported for CCOC(=O)C1=C(N(C)C)N=C(C)C(C(=O)OCC)C1c1ccccc1C(F)(F)F (centres undefined) = 87 °C

Form: compound = COc1ccc(-c2nc(-c3ccc4c(c3)N(C)C(=O)CS4)cs2)cc1OC ; melting point = 144 °C

Item: O=C(Nc1cccnc1)N1CCN(c2nccc(-c3c(F)cccc3F)n2)CC1 | melting point: 185 to 186 °C

So for C=CCN(CC=C)c1nc(NC(=O)CCCC(=O)OC)n2oc(=O)nc2n1 , the logged melting point turned out to be 164 to 165 °C

---

Would you kindly list melting point for each of these molecules?

For CCCC(=O)Nc1n[nH]c2cc(-c3ccc(C(C)(C)C)cc3)ccc12 the molecule record lists melting point as 246 °C

The recorded melting point for entry CC=CCN(Cc1cc(C)ccc1C)c1ncnc2c1ncn2C1OC(CO)C(O)C1O (stereo not drawn) equals 125 to 127 °C

Notebook: CCOc1ccc(-c2c(C(=O)OC)c(C(=O)OC)c(O)c3cc(OC)c(OC)c(OC)c23)cc1OCC , melting point read as 138 to 140 °C

Lab note: measured melting point of Cc1nc(NCC(C)C)sc1C(=O)c1ccc(Cl)c([N+](=O)[O-])c1 was 138 to 142 °C

melting point recorded for this molecule, Cc1ccc(OC(C)C(=O)c2cc(C(C)(C)C)c(O)c(C(C)(C)C)c2)c(-n2nc3ccccc3n2)c1 (stereo not drawn) , is 161 °C

Documented melting point of O=C(O)c1ccccc1N1CCN(CC(O)COc2ccc3c(c2)OCO3)CC1 (stereo not drawn) : 229 to 231 °C

melting point recorded for this molecule, CC1(C)O[C@@H](CN=C2OCc3ccccc32)[C@H](CN=C2OCc3ccccc32)O1 , is 204 °C

// melting point lookup, molecule = Cc1nc(NC(=O)Nc2ccc(N3CCN(C(=O)Nc4cc(OCCO)ccc4Cl)CC3)nc2)sc1C , result: 128 to 129 °C

---

Assignment: determine reported melting point for the given compounds.

Notebook: CCC1CCC(C)N(C(=O)CN(C(=O)CNC(=O)Nc2cccc(C)c2)c2ccccc2)C1 (centres undefined) , melting point read as 158 °C

// CC1(C)Cc2nc(C3CC3)c(Cc3ccc(C(F)(F)F)cc3)c(-c3ccc(F)c(F)c3)c2C(O)C1 (centres undefined) : melting point value = 126 to 127 °C

Quick note, melting point for CC(=O)OC1CSC(Oc2cc(-c3cncnc3)cnc2F)C(OC(C)=O)C1OC(C)=O (centres undefined) landed at 96 to 97 °C

// field: melting point; key: CCCN1C(=O)C2(c3ccc(N)cc3)CC(c3ccc(N)cc3)(C2)C1=O ; value = 149 to 150 °C

---

I'd be grateful if you could share measured melting point for these entries.

Record summary for N#Cc1cnn2c(C(F)(F)F)cc(-c3ccc(Cl)cc3Cl)nc12 : reported melting point = 180 °C

Given item COc1ccc(C(=O)Nc2ccccc2)cc1NCc1ccccc1C , the value recorded as its melting point is 167 to 169 °C

The reported value for CCC(C)(C)NCCC(C(=O)O)C(=O)c1ccc(Cl)cc1Cl (stereo not given) in terms of melting point is 124 to 126 °C

Input NC1CCc2cc3c(cc2C1)OCC3 (stereo not given) . Output melting point: 60 °C

Measured melting point, CCn1c(N)c(C(=O)NC)c(=O)c2ccc(Cl)nc21 : 283 to 286 °C

Sample COCC(OC(C)=O)C1CC(=O)C2(C)CCC3C(CCC4=CC(=O)C=C(C)C43C)C12 (stereo not given) ; melting point observed: 184 to 185 °C

Looking up Cc1cc(C)c(P(C(C)(C)C)C(C)(C)C)c(C)c1 , I see its melting point listed as 36 to 37 °C

Consider COc1ccccc1CN[C@H]1CCCN(CCCCCc2ccccc2)[C@H]1c1ccccc1 (relative stereo) . Its measured melting point is 109 °C

Lookup result for Nc1ccn(C2OC(CO)C(O)C2O[N+](=O)[O-])c(=O)n1 (stereo not given) ; measured melting point: 151 to 153 °C

melting point reported for this compound Cc1nc(-c2ccc(CN3C(=O)C4(COc5cc6c(cc54)OCCO6)c4ccccc43)cc2)no1 (stereo not given) : 174 to 175 °C

Documented melting point of CC(C)(CO)Nc1nc(Nc2cccc(NS(C)(=O)=O)c2)nc2[nH]cnc12 : 215 to 218 °C

# compound Clc1ccc(-c2coc3ccc(Br)cc23)c(Cl)c1 ; its melting point = 116 to 117 °C

Lab book: melting point of O=c1nc(-c2cccc(Sc3ncccn3)n2)sc2ccccc12 noted as 245 to 246 °C

For O=C(C=NO)Nc1cc(Cl)cc(Cl)c1 the compound record lists melting point as 196 to 197 °C

Entry CCC1C2C3Cc4ccc(OC)c5c4C2(CCN3C)C(O5)C(O)C1(C)C (stereo not given) ; melting point = 104 to 108 °C

Query Cc1cc2ccncc2c(=O)c2ccccc12 yields melting point of 112 to 116 °C

Summary for this compound, O=C(Cc1csc(-c2c(O)cccc2O)n1)NC1C(=O)N2C(C(=O)OC(c3ccccc3)c3ccccc3)=CCSC12 (stereo not given) : melting point is 164 to 166 °C

Reported melting point ( CCOCc1cc2cc(Cl)ccc2oc1=Nc1ccc(OC)cc1 ) = 136 to 138 °C

The compound COc1c(F)cc2c(c1F)CC(n1cc[nH]c1=S)CC2 (stereo not given) showed melting point equal to 228 to 230 °C

So, CCc1ccc2oc(C(=O)Nc3ccc(-c4ccc(S(=O)(=O)NC(C(=O)OC)C(C)C)cc4)cc3)c(C)c2c1OCc1ccccc1 (stereo not given) ? Its melting point was 191 to 193 °C

---

measured property: melting point

For record CCOC(=O)C(C)(C)NC(=O)c1nnc2ccc(Cl)nn12 the listed melting point is 132 to 133 °C

Memo: CCCCCCCCCCc1c(C)c(C)c(-c2n[nH]c3cc(C(C)(C)C)nn23)c(C)c1C , reported melting point: 194 to 195 °C

// sample CN1C(=O)C(Br)=C(c2cn(C(=O)OC(C)(C)C)c3ccc(OCc4ccccc4)cc23)C1=O , its melting point was 155 °C

GET /value?item= CCC1CCCCN1CC(=O)NN=Cc1c(-c2ccccc2)nn2ccccc12 (centres undefined) &field=melting point returns 156 to 158 °C

Looking up COc1ccc2cc(C(C)C(=O)NCC3(C)CCC4C(=C(C)C(C)=CC4(C)O)O3)ccc2c1 (centres undefined) , I see its melting point listed as 67 to 70 °C

Memo: O=C(O)C1CCc2c(c3ccccc3n2C(=O)c2cccc(C(F)(F)F)c2)C1 (centres undefined) , reported melting point: 173 to 175 °C

Record summary for CC1=CC(N)(C(=O)NCCC(C)n2ccnc2)CC=C1 (centres undefined) : reported melting point = 128 to 130 °C

The recorded melting point for entry C=CCc1c(OC)c(=O)[nH]c2cc(Cl)ccc2c1=O equals 135 to 136 °C

Kindly note the recorded melting point for CC(C)NC(=O)c1nc(Cl)c(Cl)[nH]1 , which is 150 °C

The reported value for CC(=O)Nc1cnn2c1-c1ccccc1NC2(C)C in terms of melting point is 228 to 230 °C

Sample Cc1c(OCC(C)(C)CS(N)(=O)=O)nn2ccnc2c1C ; melting point observed: 222 to 225 °C

get_value(item= O=C(Nc1cccc2c1C(=O)c1c-2n[nH]c1-c1ccc(N2CCNCC2)cc1)NN1CCC[C@@H]1CO , readout=melting point) returns 190 °C

Value of melting point reported for the compound COc1cc(N)c(Cl)cc1C(=O)NCC1CCN(CCCCCC(=O)c2ccc(O)cc2O)CC1 is 96 to 99 °C

The reported value for Nc1ncc(Sc2ccc(O)cc2)s1 in terms of melting point is 187 to 188 °C

Per the record, CC1Oc2ccc(CN3CCN(CCO)CC3)cc2NC1=O (centres undefined) has melting point of 174 °C

GET /value?item= O=C1N(CC(F)(F)F)C(=NCc2ccc(OC(F)(F)F)cc2)SCN1c1ccccc1 &field=melting point returns 84 to 87 °C

compound CCc1cccc(-c2[nH]c(C(C)C)nc2-c2cccc(-c3ccc(S(C)(=O)=O)cc3)c2)n1 , melting point observed: 108 to 110 °C

// CC(C)(C)OC(=O)N1CCn2c(Br)c(-c3cccc(F)c3)c(C(=O)n3ccnc3)c2C1 : melting point value = 168 to 169 °C

// melting point lookup, compound = COc1cc(OC)c(-c2cc3ccccc3n2C)cc1C=CC(=O)c1ccc(C(=O)O)cc1 , result: 157 to 160 °C

In plain terms, O=C(O)c1cc(Oc2ccc(C(F)(F)F)cc2Cl)ccc1Cl has a documented melting point of 103 to 104 °C

Entry CCCc1c(SCCCCSc2nc3ccc(C(=O)O)cc3[nH]2)ccc(C(C)=O)c1O — recorded melting point = 90 to 95 °C

// melting point value for FC(F)Oc1cccc(-c2ccc3nnn(Cc4ccc5ncccc5c4)c3n2)c1 : 122 to 125 °C

Entry under test: COc1cc2c(-c3ccnc(NN)c3)c(CO)c(CO)cc2cc1OCc1ccccc1 . Its melting point was 155 to 157 °C

Note to self: melting point recorded for CCOC(=S)NCCN1CCC(Nc2nc3ccccc3n2Cc2ccc(F)cc2)CC1 was 149 °C

Lookup result for CC(C)=CCCN1C(=O)c2ccccc2C1=O ; measured melting point: 95 to 97 °C

Per the records, this compound ( CCc1cc2c(cc1OCc1ccccc1)CCC1C2CCC2(C)C(=CCO)CCC12 (centres undefined) ) has melting point equal to 61 to 62 °C

So for Fc1ccc(-c2nc3ccc(N4CCC5(CCCNC5)CC4)nn3c2-c2ccnc3[nH]ccc23)cc1 , the logged melting point turned out to be 279 to 280 °C

Reported melting point of CC(C)(C)c1cc(OCCCCCc2nnn[nH]2)cc(C(C)(C)C)c1O : 140 to 141 °C

Memo: Cc1c(C(F)(F)C(F)(F)F)ncn(-c2c(Cl)cc(C(F)(F)F)cc2C#N)c1=O , reported melting point: 158 to 160 °C

Record summary for Cc1cc(C)c(NC(=O)C2c3ccccc3COc3ccc(C)cc32)c(C)c1 (centres undefined) : reported melting point = 148 to 149 °C

Recorded result, CC(=O)OCc1c(C(=O)C(=O)O)c2cc(OCc3ccccc3)ccc2n1Cc1ccc(C(C)(C)C)cc1 , melting point: 145 to 146 °C

// sample COc1ccc2ncccc2c1N , its melting point was 152 to 154 °C

Notebook: CCCNC(=O)c1cnc2cc(C)ccn2c1=O , melting point read as 194 to 196 °C

Input NCC1Cc2c(ccc3c2CCCC3)O1 (centres undefined) . Output melting point: > 225 °C

Entry CCCCCCCCCCCCCCCCCCOC(=O)c1ccc(C)c(N)c1 , melting point reported as 79 °C

Measured melting point of O=c1cnc2c(NC(CO)CO)nc(SCc3cccc(C(F)(F)F)c3F)nc2[nH]1 : 244 to 245 °C

So, CCCCCC1CCC(c2ccc(-c3cc(F)c(C(F)(F)Oc4cc(F)c(C(F)(F)F)c(F)c4)c(F)c3)c(F)c2)CC1 (centres undefined) ? Its melting point was 74 °C

The reported melting point of the compound COc1ccc(N)c(S)c1 was 104 °C

COc1ccc(C2Sc3cccc4cccc(c34)N(CCN(C)C)C(=O)C2OC(C)=O)cc1 (centres undefined) has a reported melting point of 111 to 112 °C
